- experimental.details: Clearance in Sprague-Dawley rat at 1 mg/kg, iv
- Format: ADME, organism-based
- Parameters: dose 1 mg/kg, route intravenous
- conditions.used: in vivo
recorded.endpoint: clearance (mL/min/kg)
Your answer is read as mL/min/kg, so omit the unit and give the number.

Task: Find the recorded clearance belonging to CN(c1ccccc1-c1cc(Cl)c2cnc(Nc3ccc(C4CCN(CC(N)=O)CC4)cc3)nn12)S(C)(=O)=O and report it.
Result: 14

----------
- experimental.details: Volume of distribution in Sprague-Dawley rat at 1 mg/kg, iv
- Type: ADME, organism-based
- Set-up: dose 1 mg/kg, route intravenous
- conditions.used: in vivo
recorded.endpoint: Vd (L/kg)
# output: bare number, implied unit L/kg

Task: Data request, read-out Vd, for CN(c1ccccc1-c1cc(Cl)c2cnc(Nc3ccc(C4CCN(CC(N)=O)CC4)cc3)nn12)S(C)(=O)=O
Result: 1.3

Origin of values: ChEMBL document CHEMBL1932974
